test: Components of the Cytosolic LPS Sensing Pathway: Gene Identification via Genome-wide siRNA Screen; details: RAW264.7 macrophages, IL-1a HTRF, actives lie on both sides, screened at 100 nM (by protocol), cells primed 5 h with Pam3CSK4 first
The campaign covered roughly 53,000 sequences. About 3,700 (7%) were called active. Many of the other results were omitted from the sample, so actives are more common in it than they were.
z-score: recorded values
observed.property: z-score

>>> print(df.to_string())
                          sequence_input  recorded_result
0     GCCAUAUGAUAAUAUAGAGTT against Gbp6           -0.574
1  CGUUUUUCUCUAACUUACATT against Ldlrad3              2.6
2   CCAAUUACGAGACUCUCAUTT against Zfp786         -0.00661
3    GGUCCCAUUCAGUGUGUGUTT against Cdk10             2.98
4   GGAGGAUCUAUACCACGGUTT against Npffr2            0.565
5    GGCCUAUGUCAGCACUUUATT against Eif3f           -0.113

---

Assay: Components of the Cytosolic LPS Sensing Pathway: Gene Identification via Genome-wide siRNA Screen
Settings: RAW264.7 macrophages, IL-1a HTRF, actives lie on both sides, screened at 100 nM (by protocol), cells primed 5 h with Pam3CSK4 first
Method: Non-canonical inflammasome activation by cytosolic LPS is a critical component of the host response to Gram-negative bacterial infection, however we lack a comprehensive understanding of the cellular processes that control this pathway. […] Lipofectamine RNAiMAX Transfection Reagent ([…]; Invitrogen) was added in […] serum-free, antibiotic-free media to plate wells using a Thermo Scientific Matrix WellMate and Microplate Stacker. […] The plates were read on an EnVision plate reader (PerkinElmer). […]
In all, about 53,000 sequences went through this assay and about 3,700 (7%) were called active. The entries come from a sample that favours actives as a whole.
observed.property: z-score

                            sequence_input  observed_property  recorded_result
 0      GACACCACAGUCAAAUCUGTT against Agr2            z-score            -2.26
 1  GGCAGCGAAAGUUUUCAAGTT against Pcdhga12            z-score            0.721
 2     GACUGAACAGAUCUACUCUTT against Klra7            z-score           -0.413
 3       GGACAUAAUCAAAGACAUCTT against Ddc            z-score             1.15
 4    GGCUAGAAAACCUCUAUCUTT against Lrrc18            z-score            -2.11
 5     GGAUCUGCAUUUCACUAUUTT against Pi4ka            z-score            0.818
 6    GGACUACUUUAAGGAUUGGTT against Tfip11            z-score            -2.97
 7      GGAUGCUCUCUUAAAUGGATT against Gbp6            z-score            0.327
 8   GCAUUGUGCUCAAAUCUGCTT against C1qtnf7            z-score           -0.168
 9    GGAGCAAGAUGAAGAAGAGTT against Ticam2            z-score            -2.26
10   GGUGAAACCCUGAAAGUCCTT against Tmem154            z-score           -0.169
11     GCUUGUUCACCCAGUUAUGTT against Hexdc            z-score             1.15

---

experiment: Components of the Cytosolic LPS Sensing Pathway: Gene Identification via Genome-wide siRNA Screen; settings: RAW264.7 macrophages, IL-1a HTRF, actives lie on both sides, screened at 100 nM (by protocol), cells primed 5 h with Pam3CSK4 first;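 also: robust z of the log signal after scaling to non-targeting control siRNA wells of the plate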
Among all 53,000 sequences or so, about 3,700 (7%) were called active.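 The calls were made as follows: active = gene knockdowns whose robust z-score for IL-1 alpha signal is at least 2 or at most -2, so actives lie on both sides; inactive = the rest.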 Only a selection was taken, and actives are over-represented in it overall.
Outcomes: Y for active, N for inactive

In [3]: df
Out[3]:
                              sequence_input  category_label
 0       GGUCUUUAUCUACCAUGGGTT against Itga7               N
 1    CCCAGGCUAUUUCAACAAUTT against Arhgef11               N
 2        GUCCCUGAACCUGUGGUAUTT against Emp3               N
 3      CGAUCAAAAAAAUCGUGUGTT against Cfap97               N
 4        GCUAGUUAAGAGGAGGCUGTT against Nob1               N
 5  GGUAGUUAACACAAAAUUGTT against 4932438H23Rik               N
 6    GGCAGAAGAAGAGUUCAACTT against Atp6v1e1               N
 7        GGCCAUCCAAGCAUGAGUUTT against Rbfa               N
 8        CGCUUUAUUAGAUGGGCUATT against Dlx5               Y
 9      GGGAGAUAAAAAGUUAAGGTT against Bclaf1               N
10     CCUCCUUAUCCAUAAUAUUTT against Slc35a3               N
11       GGAGGAACAUAUGCUCAGATT against Lce1e               Y

---

assay: Components of the Cytosolic LPS Sensing Pathway: Gene Identification via Genome-wide siRNA Screen; conditions: RAW264.7 macrophages, IL-1a HTRF, actives lie on both sides, screened at 100 nM (by protocol), cells primed 5 h with Pam3CSK4 first;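 also: robust z of the log signal after scaling to non-targeting control siRNA wells of the plate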
The campaign covered roughly 53,000 sequences. About 3,700 (7%) were called active. Shown is part of a subset that was picked to be rich in actives.
hey, just use Condition met if measured z-score is less than -0.4, otherwise Condition not met

In [3]: df
Out[3]:
                           sequence_input     category_label
 0  GGGAUUUUCAGGGAGAUUUTT against Plekho1  Condition not met
 1    GGCAUCUCUCCAAUAACCUTT against Fbxw2      Condition met
 2   GGUUCCACUCAACUGAAGATT against Actl7b  Condition not met
 3   GCUCUCCUUGAUCGAGAGATT against Spryd7      Condition met
 4     GGAGAAAUUCUUCAAUGAGTT against Syt2  Condition not met
 5   GGUCCUAACAUCCAGAGUGTT against Zfp438      Condition met
 6    GCUCGAUAUCACAGAGAUUTT against Ces5a  Condition not met
 7      CCUAAGGAGACACGAAGCCTT against Cfp  Condition not met
 8   GGCUAAAGGAAACUCACCUTT against Duoxa2      Condition met
 9     GGCUUCCUCCACUCUUUCCTT against Rhbg      Condition met
10    GGUGUGAGUGUAAGUUUAUTT against Wnt16  Condition not met
11     GGAAAAGAUGCCUGUAUUUTT against Sgcd      Condition met

---

assay: Components of the Cytosolic LPS Sensing Pathway: Gene Identification via Genome-wide siRNA Screen; settings: RAW264.7 macrophages, IL-1a HTRF, actives lie on both sides, screened at 100 nM (by protocol), cells primed 5 h with Pam3CSK4 first;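 also: robust z of the log signal after scaling to non-targeting control siRNA wells of the plate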
The campaign covered roughly 53,000 sequences. About 3,700 (7%) were called active.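 The calls were made as follows: active = gene knockdowns whose robust z-score for IL-1 alpha signal is at least 2 or at most -2, so actives lie on both sides; inactive = the rest.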 The full list was thinned out, with actives kept by preference.
Outcomes: active, inactive

>>> df
                             sequence_input  category_label
0       GCCAUAGAAGUAGAAGUAGTT against Rbmx2          active
1      CGUGGUUGUACAUAUUUGUTT against Trip10        inactive
2        GGAGACAGAGAAGAUUUGUTT against Mia2        inactive
3    GCUCCUUGCUUGAUUCUACTT against BC107364        inactive
4        GGUCAACAAGCAUGCAUUUTT against Wars        inactive
5  GGGAAGGAAGAAUUUAUUUTT against 6430571L13Rik        inactive

---

Experiment: Components of the Cytosolic LPS Sensing Pathway: Gene Identification via Genome-wide siRNA Screen;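 also: robust z of the log signal after scaling to non-targeting control siRNA wells of the plate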
Conditions: RAW264.7 macrophages, IL-1a HTRF, actives lie on both sides, screened at 100 nM (by protocol), cells primed 5 h with Pam3CSK4 first
Method: Non-canonical inflammasome activation by cytosolic LPS is a critical component of the host response to Gram-negative bacterial infection, however we lack a comprehensive understanding of the cellular processes that control this pathway. […] Lipofectamine RNAiMAX Transfection Reagent ([…]; Invitrogen) was added in […] serum-free, antibiotic-free media to plate wells using a Thermo Scientific Matrix WellMate and Microplate Stacker. […] The plates were read on an EnVision plate reader (PerkinElmer). […]
Among all 53,000 sequences or so, about 3,700 (7%) were called active.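 The calls were made as follows: active = gene knockdowns whose robust z-score for IL-1 alpha signal is at least 2 or at most -2, so actives lie on both sides; inactive = the rest.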 The sample as a whole holds a higher share of actives than the screen did.
Outcomes: y = active, n = inactive

                              sequence_input  category_label
 0        CGACUAUUUGGGUGGCAAGTT against Scin               n
 1        GCUAGAUCCAUCCAUAUAGTT against Misp               n
 2   GGGACUGUACUCAUUUCUATT against Rnf138rt1               n
 3      CCUAAAUUUGACUGUGCCUTT against Nudt10               y
 4        GGUGAUGAUGUCAUACAAATT against Cav1               y
 5     CCCUCAACCUCCAACCACATT against Ceacam1               y
 6      GCAAGUCGUAAGCCUCAGGTT against Mrps10               n
 7      CGUUUCAACAAGCUCGUGUTT against Rbmxl2               n
 8  GGGACAAAGAGAUACACAUTT against 9530056K15Rik               n
 9         GCCACGUUCCCUUGAUCAUTT against Mx2               n
10       GGUUAUUCAAAAAUGCAACTT against Rcor1               n
11  GGAGGCUAUCAGAAGCAUCTT against C130021I20Rik               n
12  GGACUUAAAAGAGGAGAUCTT against 4933434E20Rik               y
13      UUACUGGUUGCUGUUGUGGTT against Alyref               n
14      GGAGAACCCUUAUGUGACATT against Pik3ca               n
15       CCCUAACUACUUCAUGAAUTT against Paip1               y
16        GGGAGUUUCCAGAUGUUUUTT against Gclm               n
17      GGACAUCAUGGACCUGAAGTT against Bmerb1               n
18    GGAAUUCCCAUUGGAAGAATT against Vmn1r232               n
19       CCAUUGAAAUUUCCAUCUGTT against Baalc               n
20      GGUUGGACGUGGUGAAGAATT against Chtf18               y
21     GCUAACUUACCCAAAGAAATT against Tnfaip3               n
22     GGACAAGCUAAGCAUUGAGTT against Atp6ap1               n
23        GCCUUUGUGGACCAUCCAATT against Thy1               n
24    GAUGCUAGUGAACCUCAUGTT against Olfr1020               n
